# ASSAY_SYSTEM: HTR4 (Homo sapiens, UniProt Q13639)
# Construct: purchased Promega (in-house HiBiT-GPCR construct library, NanoBRET)
# Sequence (Q13639 whole entry): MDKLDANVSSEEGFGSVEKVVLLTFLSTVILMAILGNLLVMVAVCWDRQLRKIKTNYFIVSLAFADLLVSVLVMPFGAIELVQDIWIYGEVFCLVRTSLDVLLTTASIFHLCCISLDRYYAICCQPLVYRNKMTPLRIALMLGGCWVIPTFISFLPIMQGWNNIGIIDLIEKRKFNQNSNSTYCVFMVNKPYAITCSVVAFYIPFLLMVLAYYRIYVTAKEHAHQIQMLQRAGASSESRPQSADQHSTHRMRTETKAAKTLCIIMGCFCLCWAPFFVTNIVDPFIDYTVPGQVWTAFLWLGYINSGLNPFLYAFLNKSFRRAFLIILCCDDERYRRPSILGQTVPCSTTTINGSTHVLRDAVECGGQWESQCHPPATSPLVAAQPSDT
# ASSAY_INFO: NanoBRET screen HiBiT-HTR4 in HEK293
# Assay type: binding
# TEST_CONTEXT: HTR4; tracer 1μM
# Lookup of reported NanoBRET Fold Response keyed by entry
PROPERTY_NAME: NanoBRET Fold Response

- MOLECULE: "Cc1nc2n(c(=O)c1CCN1CCC(c3noc4cc(F)ccc34)CC1)CCCC2OC(=O)NCCOCCOCCOCCOCCNC(=O)CCc1ccc2n1[B-](F)(F)[N+]1=C(c3ccc[nH]3)C=CC1=C2 (centres unmarked)"
  ASSAY_SYSTEM: "HTR4 (Homo sapiens, UniProt Q13639)"
  PROPERTY_NAME: "NanoBRET Fold Response"
  RESULT_VALUE: 1.51
- MOLECULE: "O=C(CCc1ccc2n1[B-](F)(F)[N+]1=C(c3ccc[nH]3)C=CC1=C2)NCCOCCOCCNC(=O)OCCOCCN1CCN(C2=Nc3ccccc3Sc3ccccc32)CC1"
  ASSAY_SYSTEM: "HTR4 (Homo sapiens, UniProt Q13639)"
  PROPERTY_NAME: "NanoBRET Fold Response"
  RESULT_VALUE: 1.00
- MOLECULE: "CC(C)N(CC[C@H](c1ccccc1)c1cc(CCNC(=O)c2ccc(CNC(=O)CCc3ccc4n3[B-](F)(F)[N+]3=C(c5ccc[nH]5)C=CC3=C4)cc2)ccc1O)C(C)C"
  ASSAY_SYSTEM: "HTR4 (Homo sapiens, UniProt Q13639)"
  PROPERTY_NAME: "NanoBRET Fold Response"
  RESULT_VALUE: 0.99
- MOLECULE: "O=C(CCOCCOCCOCCOCCNC(=O)CCc1ccc2n1[B-](F)(F)[N+]1=C(c3ccc[nH]3)C=CC1=C2)NCCCN1CCN(C2=Nc3ccccc3Oc3ccc(Cl)cc32)CC1"
  ASSAY_SYSTEM: "HTR4 (Homo sapiens, UniProt Q13639)"
  PROPERTY_NAME: "NanoBRET Fold Response"
  RESULT_VALUE: 1.04
- MOLECULE: "CC(C)N(CC[C@H](c1ccccc1)c1cc(CCNC(=O)CCOCCOCCOCCOCCNC(=O)CCc2ccc3n2[B-](F)(F)[N+]2=C(c4ccc[nH]4)C=CC2=C3)ccc1O)C(C)C"
  ASSAY_SYSTEM: "HTR4 (Homo sapiens, UniProt Q13639)"
  PROPERTY_NAME: "NanoBRET Fold Response"
  RESULT_VALUE: 1.00

###

In this section, each of the molecules is paired with its reported NanoBRET Fold Response.
# ASSAY_SYSTEM: DRD2 (Homo sapiens)
# Construct: purchased Promega (in-house HiBiT-GPCR construct library, NanoBRET)
# Sequence (P14416 whole entry): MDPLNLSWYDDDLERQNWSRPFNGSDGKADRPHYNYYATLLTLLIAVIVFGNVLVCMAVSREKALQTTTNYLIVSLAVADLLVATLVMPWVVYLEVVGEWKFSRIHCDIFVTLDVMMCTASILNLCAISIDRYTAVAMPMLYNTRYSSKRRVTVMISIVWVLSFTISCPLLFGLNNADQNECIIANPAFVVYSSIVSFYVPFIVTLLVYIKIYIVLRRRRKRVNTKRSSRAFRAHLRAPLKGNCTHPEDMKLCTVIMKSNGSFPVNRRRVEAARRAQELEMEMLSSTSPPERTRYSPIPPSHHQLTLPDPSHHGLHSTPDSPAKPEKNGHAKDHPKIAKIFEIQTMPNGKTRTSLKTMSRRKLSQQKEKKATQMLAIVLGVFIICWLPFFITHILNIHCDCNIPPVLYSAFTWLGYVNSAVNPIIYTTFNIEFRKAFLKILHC
# ASSAY_INFO: NanoBRET screen HiBiT-DRD2 in HEK293
# Type: binding
# TEST_CONTEXT: DRD2; tracer 0.1μM
PROPERTY_NAME: NanoBRET Fold Response

- MOLECULE: "CCCn1c(=O)c2[nH]c(-c3ccc(OCC(=O)NCCNC(=O)CCOCCNC(=O)c4ccc(CNC(=O)CCc5ccc6n5[B-](F)(F)[N+]5=C(c7ccc[nH]7)C=CC5=C6)cc4)cc3)nc2n(CCC)c1=O [XAC-3-NB590]"
  RESULT_VALUE: 1.17
- MOLECULE: "O=C(CCc1ccc2n1[B-](F)(F)[N+]1=C(c3ccc[nH]3)C=CC1=C2)NCCOCCOCCNC(=O)OCCOCCN1CCN(C2=Nc3ccccc3Sc3ccccc32)CC1 [Quetiapine-a-2-NB590]"
  RESULT_VALUE: 1.86
- MOLECULE: "N#CN=C(NCCCOc1cccc(CN2CCCCC2)c1)NCCNC(=O)CCOCCOCCOCCOCCNC(=O)CCc1ccc2n1[B-](F)(F)[N+]1=C(c3ccc[nH]3)C=CC1=C2 [Aminopotentidine-2-NB590]"
  RESULT_VALUE: 1.18
- MOLECULE: "CC(C)N(CC[C@H](c1ccccc1)c1cc(CCNC(=O)c2ccc(CNC(=O)CCc3ccc4n3[B-](F)(F)[N+]3=C(c5ccc[nH]5)C=CC3=C4)cc2)ccc1O)C(C)C [Tolterodine-BZ-NB590]"
  RESULT_VALUE: 1.34
- MOLECULE: "O=C(CCc1ccc2n1[B-](F)(F)[N+]1=C(c3ccc[nH]3)C=CC1=C2)NCc1ccc(C(=O)NCCOCCC(=O)N[C@@H]2CC[C@@]3(O)[C@H]4Cc5ccc(O)c6c5[C@@]3(CCN4CC3CC3)[C@H]2O6)cc1 [Naltrexone-3-NB590]"
  RESULT_VALUE: 0.98
